Test system: HOP-62
Assay: NCI tumour cell line growth inhibition, 48 h
Calls of active or inactive are those of the source. Cut-off read from the data, not from the text of the source: active = GI50 up to about 1.1 µM and inactive = higher.
Task for the reader: assign each of the following compounds its reported GI50.

# compound, result
rows = [
    ("COc1ccc(C)cc1Nc1nnc(-c2ccccc2N)s1", "44.7 µM (inactive)"),
    ("O=c1[nH]nc(Cc2ccc(Cl)cc2)n1/N=C/c1ccco1", "48.6 µM (inactive)"),
    ("N#Cc1nc(-c2ccccc2O)oc1N", "> 100 µM (inactive)"),
]

I have 7 compounds here; please give me GI50 for each one.
1. Cc1ccc2c(n1)NC(=O)C(Cc1ccccc1)(N=[N+]=[N-])C2=O (stereo not given)
2. O=c1c(Cc2ccc(Cl)cc2)nnc2sc(-c3ccc(-c4ccc(F)c(Cl)c4)o3)nn12
3. CC(C)CC1N=C(OCc2ccccc2)OC1=O (stereo not given)
4. CC(=O)N1CN2C(=O)CCC2c2ccccc21 (stereo not given)
5. CCCc1nnc2sc(COc3ccc(OCc4nn5c(CCC)nnc5s4)c(Cl)c3)nn12
6. O=C(CC1Sc2ccccc2NC1=O)Nc1ccccc1[N+](=O)[O-] (stereo not given)
7. Cc1ccc(N2Cc3c(ccc4ccccc34)OP2(=S)N2CCCC2)cc1 (stereo not given)

Response:
1: > 100 µM (inactive); 2: > 100 µM (inactive); 3: > 100 µM (inactive); 4: > 100 µM (inactive); 5: 47.8 µM (inactive); 6: > 100 µM (inactive); 7: > 100 µM (inactive)

---

Test system: SF-539
Test: NCI tumour cell line growth inhibition, 48 h
Calls of active or inactive are those of the source. No stated cut-off is given here; in the data, active = GI50 up to about 1.1 µM and inactive = higher.
test readout: GI50

# compound, experimental target, GI50
measured = [
    ("O=C1c2ccccc2CC12CCC1(CC2)OCCO1", "SF-539", "> 100 µM (inactive)"),
    ("Cc1cccc(N2C(=O)C(=O)C(c3nc4ccccc4s3)/C(=N/NC(=S)NN)C2=O)c1C (stereo not given)", "SF-539", "> 100 µM (inactive)"),
    ("c1ccc(CSc2nc(N3CCOCC3)c3cn[nH]c3n2)cc1", "SF-539", "21 µM (inactive)"),
    ("NC(=O)CC(Nc1ncc2c(n1)-c1ccccc1OC2)C(=O)O (stereo not given)", "SF-539", "> 100 µM (inactive)"),
]

I have 8 compounds here; please give me GI50 for each one.
1. CCCc1nnc2sc(COc3ccc(OCc4nn5c(CCC)nnc5s4)c(Cl)c3)nn12
2. CCOC(=O)c1sc2[n+](c1C)C(=O)/C(=C/c1ccc([N+](=O)[O-])cc1)S2
3. CCN(CC)CCOc1ccccc1/C=C/c1noc2ccccc12
4. C[n+]1cccc2ccc(OC(=O)c3ccccc3)cc21
5. C[n+]1c2ccccc2c(CNCC(=O)O)c2ccccc21
6. COc1cc2nn(-c3ccccc3)nc2c2nonc12
7. Cc1ccc(-n2nnc3c(NNc4ccccc4)n[nH]c(=O)c32)cc1
8. COc1ccccc1-c1cc(O)c2cc(C)cnc2n1

Response:
1. 12.1 µM (inactive)
2. 21.2 µM (inactive)
3. 16 µM (inactive)
4. > 100 µM (inactive)
5. 2.12 µM (inactive)
6. 87.5 µM (inactive)
7. > 100 µM (inactive)
8. 38.5 µM (inactive)

---

Task for the reader: assign each of the following molecules its reported GI50.
Test system: TK-10
Assay: NCI tumour cell line growth inhibition, 48 h
Calls of active or inactive are those of the source. No stated cut-off is given here; in the data, active = GI50 up to about 1.1 µM and inactive = higher. Where a SMILES comes first, the peptide text is derived from it. [ ]: non-standard residue; d: D form. Hiv = CC(C)[C@H](O)C(=O)O

Worked set:
# molecule, experimental target, GI50
records = [
    ("CC(C)CC1N=C(OCc2ccccc2)OC1=O (configuration not stated)", "TK-10", "> 100 µM (inactive)"),
    ("O=C1CC(c2ccccc2)NCCCCN2CC(CN1)C(C(O)c1ccccc1)C2=O (configuration not stated)", "TK-10", "> 100 µM (inactive)"),
    ("C(=N\\Nc1ccccc1)/c1nc2ccccc2nc1/C=N/Nc1ccccc1", "TK-10", "15.8 µM (inactive)"),
    ("CN(C)C(=O)Oc1ccc[n+](C)c1 [PYRIDOSTIGMINE BROMIDE]", "TK-10", "> 100 µM (inactive)"),
    ("O=C(OCCN1CCCCC1)C(c1ccccc1)C1(O)CCSCC1 (configuration not stated)", "TK-10", "> 100 µM (inactive)"),
    ("c1ccc2c(c1)CCN2CCN1CCc2ccccc21", "TK-10", "> 10 µM (inactive)"),
    ("O=C(O)c1cccc(Nc2c(C(=O)O)cccc2[N+](=O)[O-])c1", "TK-10", "> 100 µM (inactive)"),
    ("CC(C)[C@@H]1OC(=O)[C@@H](C)NC(=O)[C@@H]2CCCN2C1=O (cyclo([Hiv]-Pro-[dA]))", "TK-10", "> 100 µM (inactive)"),
    ("CC(C)(C)SC1=CCC[C@@H](P(=O)(c2ccccc2)c2ccccc2)[C@@H]2CCC[C@@H]12", "TK-10", "17.5 µM (inactive)"),
    ("CC(=O)c1c[nH]cc1CO", "TK-10", "> 10 µM (inactive)"),
]

I have 2 molecules here; please give me GI50 for each one.
1. COc1ccc(/C=c2/sc3n(c2=O)C(c2ccccc2)C2(O)CCCCC2N=3)cc1 (configuration not stated)
2. CN(C)/C=N/S(=O)(=O)c1nn2c(C=O)c(-c3ccccc3)nc2s1

Response:
["> 12.5 µM (inactive)", "12.9 µM (inactive)"]

---

Test system: EKVX
Experiment: NCI tumour cell line growth inhibition, 48 h
Calls of active or inactive are those of the source. No stated cut-off is given here; in the data, active = GI50 up to about 1.1 µM and inactive = higher.
Task for the reader: assign each of the following compounds its reported GI50.

Worked set:
# compound, experimental target, GI50
rows = [
    ("COCn1c2ccc(OC(C)=O)cc2c2c(=O)oc(N(C)C)nc21", "EKVX", "> 100 µM (inactive)"),
    ("COc1ccc(C)cc1Nc1nnc(-c2ccccc2N)s1", "EKVX", "24.7 µM (inactive)"),
    ("CN(C)C(=O)Oc1ccc[n+](C)c1 [PYRIDOSTIGMINE BROMIDE]", "EKVX", "> 100 µM (inactive)"),
    ("CC(C)(Oc1ccc(-c2cccc3ccccc23)cc1)C(=O)O", "EKVX", "> 100 µM (inactive)"),
]

Request: Using the record for "Cc1nc(C)c(N2CCN([N+](=O)[O-])CC2)c(O)n1" , report its GI50.
Response: > 100 µM (inactive)

---

System: XF498
Test: NCI tumour cell line growth inhibition, 48 h
The source made the active and inactive calls. Cut-off read from the data, not from the text of the source: active = GI50 up to about 1.1 µM and inactive = higher.
Task for the reader: assign each of the following compounds its reported GI50.

Worked set:
# compound, GI50
records = [
    ("O=NN(CC1(O)OCC(O)C(O)C1O)C(Cc1c[nH]c2ccccc12)C(=O)O (stereo not drawn)", "> 100 µM (inactive)"),
    ("COC(=O)C1=C(C)C(=O)[C@H]2C(C(=O)OC)CCCC[C@@H]12 (stereo partly drawn)", "89.9 µM (inactive)"),
    ("Cc1[nH]c(=O)[nH]c(=O)c1/C=C/C(=O)NC(CO)CC(C)C (stereo not drawn)", "60 µM (inactive)"),
    ("c1ccc2c(NCCCCCCCCNc3cccc4ccccc34)cccc2c1", "78.9 µM (inactive)"),
    ("COc1c(OC2OC(CO)C(O)C(O)C2O)cc2c(c1OC)-c1ccc(OC)c(=O)cc1[C@@H](NC(C)=O)CC2 (stereo partly drawn)", "29.3 µM (inactive)"),
    ("C=Cc1c(-c2ccccc2)cnc2[nH]c3ccccc3c12", "> 50 µM (inactive)"),
]

I have 2 compounds here; please give me GI50 for each one.
1. COC(=O)CCC(=O)CC(=O)C(=O)Nc1c(Cl)cc([N+](=O)[O-])cc1Cl
2. Cc1cc2c(cc1C)NC(=O)C(NC(=O)/C=C/c1ccccc1)C=N2 (stereo not drawn)

Response:
1. > 100 µM (inactive)
2. 28 µM (inactive)

---

Tested on: CCRF-CEM
Experiment: NCI tumour cell line growth inhibition, 48 h
Active and inactive are the calls of the source. Rule as the data show it: active = GI50 up to about 1.1 µM and inactive = higher.
Task for the reader: assign each of the following compounds its reported GI50.

# compound, result
data = [
    ("C#CC1(O)CCC2[C@@H]3CCc4cc(Oc5nc(F)nc(-c6c(C)c(C(=O)OCC)n7ccccc67)n5)ccc4C3CC[C@@]21C (stereo partly drawn)", "61 µM (inactive)"),
    ("C[n+]1cccc2ccc(OC(=O)c3ccccc3)cc21", "> 10 µM (inactive)"),
]

Kindly consider the entry below.
Request: Using the record for "Cc1nc(/C(=N\n2cnnc2)Nc2ccc(Br)cc2)no1" , report its GI50.
Response: > 100 µM (inactive)

---

Task for the reader: assign each of the following compounds its reported GI50.
Test system: ACHN
Experiment: NCI tumour cell line growth inhibition, 48 h
Calls of active or inactive are those of the source. Rule as the data show it: active = GI50 up to about 1.1 µM and inactive = higher.

I have 4 compounds here; please give me GI50 for each one.
1. COc1ccc(C2OC(c3ccncc3)=NN2C)cc1OC (centres undefined)
2. COC(=O)/C(C#N)=C(/NCCN)Nc1ccccc1
3. Cc1ccc2c3c1O[C@H]1c4[nH]c5ccccc5c4C[C@@]4(O)[C@@H](C2)N(CC2CC2)CC[C@]314
4. CCSC12CC3c4cccc5c4C(CN5C(=O)c4ccccc4)CC3(O1)N(C)C2=O (centres undefined)

Response:
1. > 100 µM (inactive)
2. > 100 µM (inactive)
3. 16.6 µM (inactive)
4. 33.6 µM (inactive)
